Ref: ChEMBL document CHEMBL1800075

Protocol Text: Inhibition of sodium channel site 2
Assay Endpoint: IC50

Please indicate IC50 recorded for COc1ccc2c(c1)C(CC1CCOCC1)(c1ccc(Cl)cc1)n1ccnc1-2 (stereo unspecified)
4 µM

====

Protocol Text: Drug level in plasma of rat at 30 mg/kg, ip measured after 2 hrs
Format: ADME, organism-based
Design: dose 30 mg/kg, route intraperitoneal
Assay Endpoint: concentration at 2 h

Consider the compound CCN(CC)C(=O)CCC1(c2ccc(Cl)cc2)c2c(OC)cccc2-c2nccn21 (stereo unspecified) and give its recorded concentration at 2 h.
3000 nM

====

Protocol Text: Unbound fraction in rat plasma by ultracentrifugation
Format: ADME, cell-free
Everything with fraction unbound lower than 0.01 is class 0; everything else, including exactly 0.01, is class 1.

Example entries begin here.
COc1ccc2c(c1)C(CCC(=O)N1[C@H](C)CC[C@@H]1C)(c1ccc(Cl)cc1)n1ccnc1-2 (stereo not given in full) :: class 0
CCN(CC)C(=O)CCC1(c2ccc(Cl)cc2)c2c(OC)cccc2-c2nccn21 (stereo not given) :: class 1
N#Cc1ccc(C2(Cc3ccccc3)c3ccccc3-c3nccn32)cc1 (stereo not given) :: class 1
Brc1ccc(C2(CC3CCOCC3)c3ccccc3-c3nccn32)cc1 (racemic) :: class 1

Check this compound for fraction unbound at or above 0.01: Brc1ccc(C2(Cc3cccnc3)c3ccccc3-c3nccn32)cc1 (racemic)
class 1

I'd appreciate it if you could say whether CCC1CCCCN1C(=O)CCC1(c2ccc(Cl)cc2)c2ccccc2-c2nccn21 (mixture of isomers) has fraction unbound at least equal to 0.01.
class 1

Hi team, for N#Cc1ccccc1CC1(c2ccc(Br)cc2)c2ccccc2-c2nccn21 (racemic) , is the recorded fraction unbound at or above 0.01?
class 0

====

Measurement Target: Neuropeptide S receptor (Homo sapiens, UniProt Q6W5P4)
Sequence (Q6W5P4 whole entry): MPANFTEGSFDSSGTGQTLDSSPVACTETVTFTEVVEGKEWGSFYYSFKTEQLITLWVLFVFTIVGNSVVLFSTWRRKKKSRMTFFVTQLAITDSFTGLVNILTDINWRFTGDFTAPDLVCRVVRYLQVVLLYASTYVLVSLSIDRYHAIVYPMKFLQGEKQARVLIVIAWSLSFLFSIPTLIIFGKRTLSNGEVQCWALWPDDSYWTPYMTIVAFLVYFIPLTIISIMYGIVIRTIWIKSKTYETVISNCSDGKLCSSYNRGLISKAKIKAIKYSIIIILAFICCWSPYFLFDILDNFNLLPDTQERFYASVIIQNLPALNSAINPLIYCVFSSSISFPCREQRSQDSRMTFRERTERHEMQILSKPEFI
Protocol Text: Antagonist activity at human recombinant NPS receptor expressed in CHOK1 cells assessed as inhibition of NPS-induced calcium mobilization by FLIPR assay
IC50 vs 0.2 µM: less than gives yes (1); not less than gives no (0).

Illustrative cases are given below, each with its answer.
Brc1ccc(C2(CCC3CCOCC3)c3ccccc3-c3nccn32)cc1 (racemic) :: yes (1)
CCN(CC)C(=O)CCC1(c2ccc(Cl)cc2)c2ccccc2-c2nccn21 (single isomer, unassigned) :: yes (1)
N#Cc1ccc(C2(CC3CCCC3)c3ccccc3-c3nccn32)cc1 (stereo not given) :: yes (1)
Cc1ccc(C2(Cc3ccccc3)c3ccccc3-c3nccn32)cc1 (stereo not given) :: no (0)
CC(C1CCN(C(=O)CCC2(c3ccc(Cl)cc3)c3ccccc3-c3nccn32)CC1)N1CCCC1 (mixture of isomers) :: yes (1)
CCC1CCCCN1C(=O)CCC1(c2ccc(Cl)cc2)c2ccccc2-c2nccn21 (mixture of isomers) :: yes (1)
N#Cc1ccc(C2(CC3CCCCC3)c3ccccc3-c3nccn32)cc1 (stereo not given) :: yes (1)
COc1ccc2c(c1)C(CC1CCOCC1)(c1ccc(Cl)cc1)n1ccnc1-2 (stereo not given) :: yes (1)

Report whether reported IC50 is lower than 0.2 µM (strictly) for Brc1ccc(C2(CC3CCCCC3)c3ccccc3-c3nccn32)cc1 (racemic)
no (0)

Problem: For the molecule Brc1ccc(C2(Cc3cccnc3)c3ccccc3-c3nccn32)cc1 (racemic) , is IC50 under 0.2 µM?
no (0)

Confirm or reject: IC50 of Brc1ccc(C2(Cc3ccccc3)c3ccccc3-c3nccn32)nc1 (stereo not given) lies strictly below 0.2 µM
no (0)

Strictly below 0.2 µM in IC50? O=C(CCC1(c2ccc(Cl)cc2)c2ccccc2-c2nccn21)N1C2CCCC1CC2 (mixture of isomers)
yes (1)

Find out if reported IC50 for N#Cc1ccc(C2(Cc3ccccc3)c3ccccc3-c3nccn32)cc1 (stereo not given) is less than 0.2 µM
no (0)

Is IC50 strictly under 0.2 µM for the entry Brc1ccc(C2(CC3CCCC3)c3ccccc3-c3nccn32)cc1 (racemic) ?
no (0)

Is IC50 of Brc1ccc(C2(Cc3ccccc3)c3cccnc3-c3nccn32)cc1 (stereo not given) strictly below 0.2 µM?
no (0)
